STUDY SYSTEM: hERG (Homo sapiens (Human))
Sequence (Q12809 whole entry): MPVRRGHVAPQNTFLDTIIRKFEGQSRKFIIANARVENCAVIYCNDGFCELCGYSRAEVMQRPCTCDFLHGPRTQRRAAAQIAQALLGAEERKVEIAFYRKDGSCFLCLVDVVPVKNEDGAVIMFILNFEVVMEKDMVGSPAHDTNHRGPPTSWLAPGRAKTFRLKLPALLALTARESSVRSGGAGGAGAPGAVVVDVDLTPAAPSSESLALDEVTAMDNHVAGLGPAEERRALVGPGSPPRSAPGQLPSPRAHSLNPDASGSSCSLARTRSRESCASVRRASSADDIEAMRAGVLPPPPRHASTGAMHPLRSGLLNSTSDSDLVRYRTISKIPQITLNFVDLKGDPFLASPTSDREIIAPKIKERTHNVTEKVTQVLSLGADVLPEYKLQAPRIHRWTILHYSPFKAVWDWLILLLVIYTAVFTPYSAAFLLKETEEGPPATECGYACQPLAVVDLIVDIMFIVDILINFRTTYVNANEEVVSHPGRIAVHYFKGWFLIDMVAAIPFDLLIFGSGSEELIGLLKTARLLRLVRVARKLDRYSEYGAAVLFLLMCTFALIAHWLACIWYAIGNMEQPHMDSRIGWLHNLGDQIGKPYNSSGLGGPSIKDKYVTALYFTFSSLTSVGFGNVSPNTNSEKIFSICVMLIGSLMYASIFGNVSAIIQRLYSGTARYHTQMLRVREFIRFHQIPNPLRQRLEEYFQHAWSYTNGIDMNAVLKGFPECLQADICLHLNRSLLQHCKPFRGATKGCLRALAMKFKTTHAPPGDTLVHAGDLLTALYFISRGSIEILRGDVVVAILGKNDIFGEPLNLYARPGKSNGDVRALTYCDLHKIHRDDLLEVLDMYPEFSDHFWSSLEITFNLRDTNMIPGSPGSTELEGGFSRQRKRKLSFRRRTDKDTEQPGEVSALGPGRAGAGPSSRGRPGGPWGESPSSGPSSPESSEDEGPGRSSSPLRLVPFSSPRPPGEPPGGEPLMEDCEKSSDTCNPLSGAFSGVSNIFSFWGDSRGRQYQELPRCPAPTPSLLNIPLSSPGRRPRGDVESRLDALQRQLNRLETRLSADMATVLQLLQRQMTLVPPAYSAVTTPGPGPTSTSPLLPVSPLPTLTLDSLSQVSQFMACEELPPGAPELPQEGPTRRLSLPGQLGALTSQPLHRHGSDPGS
TEST: Patch clamp assay (hERG tail currents, whole-cell)
Type: cell-based
EXPERIMENTAL CONDITIONS: 10 μM compound, hERG transfected HEK 293 cells

{"COMPOUND": "CC(C)N(C(=O)c1cc(F)ccc1Oc1cncnc1N1CC2(CCN(C[C@@H]3CC[C@@H](NS(=O)(=O)C4CC4)CO3)CC2)C1)C(C)C [Compound 15]", "hERG % Remaining 10 μM": "+++ (“+++” means ≥66%)"}
{"COMPOUND": "CCN(C(=O)c1cc(F)ccc1Oc1cncnc1N1CC2(CCN(C[C@@H]3CC[C@@H](NS(=O)(=O)N4CCOCC4)CO3)CC2)C1)C(C)C [Compound 64]", "hERG % Remaining 10 μM": "+++ (“+++” means ≥66%)"}
{"COMPOUND": "C[C@@H]1COC[C@H](C)N1C(=O)c1cc(F)ccc1Oc1cncnc1N1CC2(CCN(C[C@@H]3CC[C@@H](NS(=O)(=O)c4ccccc4)CO3)CC2)C1 [Compound 130]", "hERG % Remaining 10 μM": "+++ (“+++” means ≥66%)"}
{"COMPOUND": "CCS(=O)(=O)N[C@@H]1CC[C@@H](CN2CCC3(CC2)CN(c2ncncc2Oc2ccc(F)cc2C(=O)N(C(C)C)C2CC(F)(F)C2)C3)OC1 [Compound 44]", "hERG % Remaining 10 μM": "+++ (“+++” means ≥66%)"}

---

STUDY SYSTEM: UniProt:O00255
TEST: Determination of binding constants (Ki) to Menin-MLL (HTRF)
EXPERIMENTAL CONDITIONS: HTRF; 0.25 nM H-FL-Menin, 3.2 nM FITC-MLL-4-43, 24 hr incubation
Answer each item with its documented EC50.

Data request: Using the record for `CC(C)N(C(=O)c1cc(F)ccc1Oc1cncnc1N1CC2(CCN(C[C@@H]3CC[C@@H](NS(=O)(=O)C4COC4)CO3)CC2)C1)C1CC(F)(F)C1` , report its EC50.
Data returned: < 50 nM

Data request: Using the record for `CCN(C(=O)c1cc(F)ccc1Oc1cncnc1N1CC2(CCN(C[C@@H]3CC[C@@H](NS(=O)(=O)N4CCC4)CO3)CC2)C1)C(C)C` , report its EC50.
Data returned: < 50 nM

Data request: Using the record for `C[C@@H]1COC[C@@H](C)N1C(=O)c1cc(F)ccc1Oc1cncnc1N1CC2(CCN(C[C@@H]3CC[C@@H](NS(=O)(=O)C4COC4)CO3)CC2)C1` , report its EC50.
Data returned: < 50 nM

---

Test system: MV4-11 cells
TEST: Cell proliferation assay MV4;11 (CellTiter-Glo, 72 hours)
Type: cell-based
EXPERIMENTAL CONDITIONS: Homo sapiens; MV4;11 leukemia cell line, 72 hours; read-out: MV4; 11 IC50
Method: Compounds were evaluated for its capacity to inhibit the proliferation of the MLLr leukemia cell line MV4-11 that harbors an MLL1-AF4 fusion protein. MV4-11 cells were cultured for 72 hours with limiting dilutions of compounds and viability was measured using CellTiter-Glo. […] After 72 hours, the cultured cells were mixed and 100p L was transferred to a 96-well black plate. […] The plate was mixed with shaking for 15 mins at RT, the luminescence was then measured using Tecan Spark 20M spectrophotometer. […]
pIC50: −log10 of the molar value.
MEASURED ATTRIBUTE: pIC50

Data request: Using the record for `CC(C)N(C(=O)c1cc(F)ccc1Oc1nncnc1N1CC2(CCN(C[C@@H]3CC[C@@H](NS(=O)(=O)N4CCC4)CO3)CC2)C1)C(C)C` , report its pIC50.
Data returned: > 7.00

Data request: Using the record for `CC(C)N(C(=O)c1cc(F)ccc1Oc1cncnc1N1CC2(CCN(C[C@@H]3CC[C@@H](NS(=O)(=O)C4CC4)CO3)CC2)C1)C1CC(F)(F)C1` , report its pIC50.
Data returned: > 7.00

Data request: Using the record for CCNS(=O)(=O)N[C@H]1CC[C@H](CN2CCC3(CC2)CN(c2ncnnc2Oc2ccc(F)cc2C(=O)N(CC(F)(F)F)C(C)C)C3)OC1 (stereo in doubt) , report its pIC50.
Data returned: > 7.00

Data request: Using the record for `CCS(=O)(=O)N[C@@H]1CC[C@@H](CN2CCC3(CC2)CN(c2ncncc2Oc2ccc(F)cc2C(=O)N(C(C)C)C2CC(F)(F)C2)C3)OC1` , report its pIC50.
Data returned: > 7.00

Data request: Using the record for `CC(C)N(C(=O)c1cc(F)ccc1Oc1cncnc1N1CC2(CCN(C[C@@H]3CC[C@@H](NS(N)(=O)=O)CO3)CC2)C1)C1CC(F)(F)C1` , report its pIC50.
Data returned: > 7.00

Data request: Using the record for `CC(C)N(C(=O)c1cc(F)ccc1Oc1cncnc1N1CC2(CCN(C[C@@H]3CC[C@@H](NS(=O)(=O)N4CCCC4)CO3)CC2)C1)[C@@H]1CCOC1` , report its pIC50.
Data returned: > 7.00

---

STUDY SYSTEM: Menin-MLL (Homo sapiens (Human), UniProt O00255)
Sequence (O00255 whole entry): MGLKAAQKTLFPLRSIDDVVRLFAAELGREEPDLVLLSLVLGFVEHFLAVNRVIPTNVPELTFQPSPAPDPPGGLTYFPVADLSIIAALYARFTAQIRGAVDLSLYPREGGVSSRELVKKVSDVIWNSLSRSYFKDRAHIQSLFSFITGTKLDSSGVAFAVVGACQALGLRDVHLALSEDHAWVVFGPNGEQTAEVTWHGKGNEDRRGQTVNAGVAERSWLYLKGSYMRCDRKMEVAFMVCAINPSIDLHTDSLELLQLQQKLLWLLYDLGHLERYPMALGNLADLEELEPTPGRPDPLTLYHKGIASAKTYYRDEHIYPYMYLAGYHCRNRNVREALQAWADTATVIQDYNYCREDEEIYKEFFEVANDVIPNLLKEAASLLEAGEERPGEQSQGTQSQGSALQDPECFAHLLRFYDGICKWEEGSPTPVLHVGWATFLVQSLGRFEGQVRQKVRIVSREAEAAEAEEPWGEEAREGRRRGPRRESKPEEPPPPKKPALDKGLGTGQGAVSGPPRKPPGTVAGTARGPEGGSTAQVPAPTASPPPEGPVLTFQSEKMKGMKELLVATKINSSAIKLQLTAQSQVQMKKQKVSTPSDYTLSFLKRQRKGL
TEST: Determination of binding constants (Ki) to Menin-MLL (HTRF)
EXPERIMENTAL CONDITIONS: HTRF; 0.25 nM H-FL-Menin, 3.2 nM FITC-MLL-4-43, 24 hr incubation
MEASURED ATTRIBUTE: EC50

Data request: Please provide the recorded EC50 for `CCN(C(=O)c1cc(F)ccc1Oc1cncnc1N1CC2(CCN(C[C@@H]3CC[C@@H](NS(=O)(=O)CC4CC4)CO3)CC2)C1)C(C)C` , tested on Menin-MLL (Homo sapiens (Human), UniProt O00255).
Data returned: < 50 nM

Data request: Please provide the recorded EC50 for `CCS(=O)(=O)N[C@@H]1CC[C@@H](CN2CCC3(CC2)CN(c2ncncc2Oc2ccc(F)cc2C(=O)N2[C@H](C)COC[C@@H]2C)C3)OC1` , tested on Menin-MLL (Homo sapiens (Human), UniProt O00255).
Data returned: < 50 nM

Data request: Please provide the recorded EC50 for `C[C@@H]1COC[C@@H](C)N1C(=O)c1cc(F)ccc1Oc1cncnc1N1CC2(CCN(C[C@@H]3CC[C@@H](NS(=O)(=O)c4ccccc4)CO3)CC2)C1` , tested on Menin-MLL (Homo sapiens (Human), UniProt O00255).
Data returned: < 50 nM

Data request: Please provide the recorded EC50 for `CC(C)N(C(=O)c1cc(F)ccc1Oc1cncnc1N1CC2(CCN(C[C@@H]3CC[C@@H](NS(=O)(=O)N4CCOCC4)CO3)CC2)C1)C(C)C` , tested on Menin-MLL (Homo sapiens (Human), UniProt O00255).
Data returned: < 50 nM

Data request: Please provide the recorded EC50 for `CCN(C(=O)c1cc(F)ccc1Oc1cncnc1N1CC2(CCN(C[C@@H]3CC[C@@H](NS(=O)(=O)c4cccc(OC)c4)CO3)CC2)C1)C(C)C` , tested on Menin-MLL (Homo sapiens (Human), UniProt O00255).
Data returned: < 50 nM

Data request: Please provide the recorded EC50 for `CCN(C(=O)c1cc(F)ccc1Oc1cncnc1N1CC2(CCN(C[C@@H]3CC[C@@H](NS(=O)(=O)C4COC4)CO3)CC2)C1)C(C)C` , tested on Menin-MLL (Homo sapiens (Human), UniProt O00255).
Data returned: < 50 nM

---

STUDY SYSTEM: UniProtKB O00255
TEST: Determination of binding constants (Ki) to Menin-MLL (HTRF)
EXPERIMENTAL CONDITIONS: HTRF; 0.25 nM H-FL-Menin, 3.2 nM FITC-MLL-4-43, 24 hr incubation
pEC50: −log10 of the molar value.
Answer each item with its documented pEC50.

Data request: Please provide the recorded pEC50 for `CCS(=O)(=O)N[C@@H]1CC[C@@H](CN2CCC3(CC2)CN(c2ncncc2Oc2ccc(F)cc2C(=O)N(C(C)C)[C@H]2CCOC2)C3)OC1` , tested on UniProtKB O00255.
Data returned: > 7.30

Data request: Please provide the recorded pEC50 for `CCS(=O)(=O)N[C@@H]1CC[C@@H](CN2CCC3(CC2)CN(c2ncncc2Oc2ccc(F)cc2C(=O)N(c2ccccc2)C(C)C)C3)OC1` , tested on UniProtKB O00255.
Data returned: > 7.30

Data request: Please provide the recorded pEC50 for `CC(C)N(C(=O)c1cc(F)ccc1Oc1cncnc1N1CC2(CCN(C[C@@H]3CC[C@@H](NS(=O)(=O)C(C)C)CO3)CC2)C1)[C@@H]1CCOC1` , tested on UniProtKB O00255.
Data returned: > 7.30

Data request: Please provide the recorded pEC50 for `CCN(C(=O)c1cc(F)ccc1Oc1cncnc1N1CC2(CCN(C[C@@H]3CC[C@@H](NC(=O)NCC(F)(F)F)CO3)CC2)C1)C(C)C` , tested on UniProtKB O00255.
Data returned: > 7.30

Data request: Please provide the recorded pEC50 for `CC(C)N(C(=O)c1cc(F)ccc1Oc1cncnc1N1CC2(CCN(C[C@@H]3CC[C@@H](NS(=O)(=O)N(C)C)CO3)CC2)C1)C1CC1` , tested on UniProtKB O00255.
Data returned: > 7.30

Data request: Please provide the recorded pEC50 for `CCNC(=O)N[C@@H]1CC[C@@H](CN2CCC3(CC2)CN(c2ncncc2Oc2ccc(F)cc2C(=O)N(CC)C(C)C)C3)OC1` , tested on UniProtKB O00255.
Data returned: > 7.30

Data request: Please provide the recorded pEC50 for `CCN(C(=O)c1cc(F)ccc1Oc1cncnc1N1CC2(CCN(C[C@@H]3CC[C@@H](NS(=O)(=O)N4CC(F)(F)C4)CO3)CC2)C1)C(C)C` , tested on UniProtKB O00255.
Data returned: > 7.30

Data request: Please provide the recorded pEC50 for `CC(C)N(CC(F)(F)F)C(=O)c1cc(F)ccc1Oc1cncnc1N1CC2(CCN(C[C@@H]3CC[C@@H](NS(=O)(=O)N(C)C)CO3)CC2)C1` , tested on UniProtKB O00255.
Data returned: > 7.30

Data request: Please provide the recorded pEC50 for `CCS(=O)(=O)N[C@@H]1CC[C@@H](CN2CCC3(CC2)CN(c2ncncc2Oc2ccc(F)cc2C(=O)N(C(C)C)[C@@H]2CCOC2)C3)OC1` , tested on UniProtKB O00255.
Data returned: > 7.30

Data request: Please provide the recorded pEC50 for `CCN(C(=O)c1cc(F)ccc1Oc1cncnc1N1CC2(CCN(C[C@@H]3CC[C@@H](NS(=O)(=O)c4ccc(Cl)cc4)CO3)CC2)C1)C(C)C` , tested on UniProtKB O00255.
Data returned: > 7.30

Data request: Please provide the recorded pEC50 for `CC(C)N(CCC#N)C(=O)c1cc(F)ccc1Oc1cncnc1N1CC2(CCN(C[C@@H]3CC[C@@H](NS(=O)(=O)c4ccccc4)CO3)CC2)C1` , tested on UniProtKB O00255.
Data returned: > 7.30

Data request: Please provide the recorded pEC50 for CCN(C(=O)c1cc(F)ccc1Oc1cncnc1N1CC2(CCN(C[C@H]3CC[C@H](NS(=O)(=O)CC)CO3)CC2)C1)C(C)C (stereo in doubt) , tested on UniProtKB O00255.
Data returned: > 7.30

Every entry's value here was drawn from patent US11919901B2.
